Hi there, I'd appreciate the recorded Uptake in Liver for every entry that follows.
Test system: MDA-MB-231 tumors
measurement protocol: in vivo
Type: in vivo, nude mice
measurement setup: female, nude, mouse, in vivo, 2 h
Numbered stars: 1 amine (or outer) side, 2 acyl side, 3 side chain; on linkers, the order of the positions; unused ones are H or OH. Square brackets hold non-standard residues; d marks the D form. Peptide text beside a SMILES is read from it. * marks the point of attachment. DOTA = O=C(O)CN1CCN(CC(=O)O)CCN(CC(=O)*)CCN(CC(=O)O)CC1; Cha = N[C@@H](CC1CCCCC1)C(=O)O; X1 = O=C(CCC(=O)[*:2])CN[*:1]; 4Abz = Nc1ccc(C(=O)O)cc1; Nle = CCCC[C@H](N)C(=O)O; Ahx = NCCCCCC(=O)O
One number for each entry, in % ID/g.

Before answering, review these 2 worked examples.
compound: CCCC[C@H](NC(=O)[C@H](Cc1c[nH]cn1)NC(=O)[C@H](CC1CCCCC1)NC(=O)[C@@H](NC(=O)[C@H](C)NC(=O)[C@H](Cc1c[nH]c2ccccc12)NC(=O)[C@H](CCC(N)=O)NC(=O)[C@H](CS)NC(=O)CNC(=O)CNC(=O)CCC(=O)CNC(=O)CN1CCN(CC(=O)O)CCN(CC(=O)O)CCN(CC(=O)O)CC1)C(C)C)C(=O)N[C@@H](CCSC)C(N)=O [^68Ga-DOTA-ALA-BN Tris-, metal not drawn] ({DOTA}-[X1]GGCQWAV[Cha]H[Nle]M-NH2)
unit annotation: % ID/g
recorded result: 1.50
//
compound: CCCC[C@H](NC(=O)[C@H](Cc1c[nH]cn1)NC(=O)[C@H](CC1CCCCC1)NC(=O)[C@@H](NC(=O)[C@H](C)NC(=O)[C@H](Cc1c[nH]c2ccccc12)NC(=O)[C@H](CCC(N)=O)NC(=O)[C@H](CS)NC(=O)CNC(=O)CNC(=O)CCCCCNC(=O)CN1CCN(CC(=O)O)CCN(CC(=O)O)CCN(CC(=O)O)CC1)C(C)C)C(=O)N[C@@H](CCSC)C(N)=O [^68Ga-DOTA-Ahx-BN Tris-, metal not drawn] ({DOTA-Ahx}-GGCQWAV[Cha]H[Nle]M-NH2)
unit annotation: % ID/g
recorded result: 1.83

Here is another compound to look at.
Task item: Hello, please tell me recorded Uptake in Liver for this one: CCCC[C@H](NC(=O)[C@H](Cc1c[nH]cn1)NC(=O)[C@H](CC1CCCCC1)NC(=O)[C@@H](NC(=O)[C@H](C)NC(=O)[C@H](Cc1c[nH]c2ccccc12)NC(=O)[C@H](CCC(N)=O)NC(=O)[C@H](CS)NC(=O)CNC(=O)CNC(=O)c1ccc(NC(=O)CN2CCN(CC(=O)O)CCN(CC(=O)O)CCN(CC(=O)O)CC2)cc1)C(C)C)C(=O)N[C@@H](CCSC)C(N)=O [^68Ga-DOTA-Abz-BN Tris-, metal not drawn] ({DOTA-4Abz}-GGCQWAV[Cha]H[Nle]M-NH2)
Reply: 1.71
